Test system: MIAPaCa-2
test-description: Reverse Phase Protein Analysis (RPPA)
Assay type: cell-based
test-parameters: MIAPaca2; % change from DMSO (matched cell line)
readout-type: Avg (Bcl2 S70)

INSERT INTO assay_data (compound, system_tested, result) VALUES
  ('Cc1cnc(Nc2ccc(F)cc2Cl)nc1-c1c[nH]c(C(=O)N[C@H](CO)c2cccc(Cl)c2)c1 [Vx-11e]', 'MIAPaCa-2', '−7.83%'),
  ('Cn1nccc1Nc1nccc(-c2ccn([C@H](CO)c3ccc(Cl)c(F)c3)c(=O)c2)n1', 'MIAPaCa-2', '−6.78%'),
  ('O=C(Nc1ccc2[nH]nc(-c3ccncc3)c2c1)[C@@H]1CCN(CC(=O)N2CCN(c3ccc(-c4ncccn4)cc3)CC2)C1', 'MIAPaCa-2', '−4.23%'),
  ('CC(C)Nc1cc(-c2c[nH]c(C(=O)N[C@H](CO)c3cccc(Cl)c3)c2)c(Cl)cn1', 'MIAPaCa-2', '0.89%');

---

test-description: Phase I study: pharmacokinetic analysis
Assay type: in vivo, human
test-parameters: human, plasma, oral, 20 mg, 20 mg BID; Day 15; read-out: Cmax
readout-type: Cmax (µg/mL)

INSERT INTO measurements (structure_smiles, quantitative_result) VALUES
  ('CC(C)Nc1cc(-c2c[nH]c(C(=O)N[C@H](CO)c3cccc(Cl)c3)c2)c(Cl)cn1', 0.0158);

---

System: Colo205
test-description: Reverse Phase Protein Analysis (RPPA)
Type: cell-based, human
test-parameters: % change from DMSO (matched cell line)
The entries below come with measured Avg (mTOR S2481) values attached.
readout-type: Avg (mTOR S2481) (%)

INSERT INTO measurements (compound, result_units, quantitative_result) VALUES
  ('Cn1nccc1Nc1nccc(-c2ccn([C@H](CO)c3ccc(Cl)c(F)c3)c(=O)c2)n1', '%', 0.96),
  ('O=C(Nc1ccc2[nH]nc(-c3ccncc3)c2c1)[C@@H]1CCN(CC(=O)N2CCN(c3ccc(-c4ncccn4)cc3)CC2)C1', '%', '−6.68'),
  ('Cc1cnc(Nc2ccc(F)cc2Cl)nc1-c1c[nH]c(C(=O)N[C@H](CO)c2cccc(Cl)c2)c1 [Vx-11e]', '%', '−9.43'),
  ('CC(C)Nc1cc(-c2c[nH]c(C(=O)N[C@H](CO)c3cccc(Cl)c3)c2)c(Cl)cn1', '%', '−1.33');

---

System: PMA-stimulated RSK1 phosphorylation
test-description: Ex vivo inhibition of PMA-stimulated RSK1 phosphorylation in human whole blood
Type: cell-based
test-parameters: Homo sapiens; whole blood from healthy volunteers; read-out: mean IC50, PMA-stimulated RSK phosphorylation
readout-type: IC50 (nM)

INSERT INTO results (structure_smiles, readout_type, result_units, quantitative_result) VALUES
  ('CC(C)Nc1cc(-c2c[nH]c(C(=O)N[C@H](CO)c3cccc(Cl)c3)c2)c(Cl)cn1', 'IC50', 'nM', 461);

---

The entries below come with measured Avg (MAK1 S360) values attached.
Test system: HCT116
test-description: Reverse Phase Protein Analysis (RPPA)
Assay type: cell-based, human
test-parameters: % change from DMSO (matched cell line)
readout-type: Avg (MAK1 S360)

INSERT INTO results (compound, result) VALUES
  ('O=C(Nc1ccc2[nH]nc(-c3ccncc3)c2c1)[C@@H]1CCN(CC(=O)N2CCN(c3ccc(-c4ncccn4)cc3)CC2)C1 [SCH772984]', '−15.32%'),
  ('Cn1nccc1Nc1nccc(-c2ccn([C@H](CO)c3ccc(Cl)c(F)c3)c(=O)c2)n1 [GDC-0994]', '−12.93%'),
  ('CC(C)Nc1cc(-c2c[nH]c(C(=O)N[C@H](CO)c3cccc(Cl)c3)c2)c(Cl)cn1 [BVD-523]', '−13.45%'),
  ('Cc1cnc(Nc2ccc(F)cc2Cl)nc1-c1c[nH]c(C(=O)N[C@H](CO)c2cccc(Cl)c2)c1 [Vx-11e]', '−13.73%');

---

The entries below come with measured Avg (Raptor) values attached.
Test system: MIAPaCa-2
test-description: Reverse Phase Protein Analysis (RPPA)
Type: cell-based
test-parameters: MIAPaca2; % change from DMSO (matched cell line)
readout-type: Avg (Raptor) (%)

INSERT INTO results (compound, quantitative_result) VALUES
  ('Cn1nccc1Nc1nccc(-c2ccn([C@H](CO)c3ccc(Cl)c(F)c3)c(=O)c2)n1 [GDC-0994]', 22.43),
  ('O=C(Nc1ccc2[nH]nc(-c3ccncc3)c2c1)[C@@H]1CCN(CC(=O)N2CCN(c3ccc(-c4ncccn4)cc3)CC2)C1 [SCH772984]', 17.66),
  ('CC(C)Nc1cc(-c2c[nH]c(C(=O)N[C@H](CO)c3cccc(Cl)c3)c2)c(Cl)cn1 [BVD-523]', 21.15),
  ('Cc1cnc(Nc2ccc(F)cc2Cl)nc1-c1c[nH]c(C(=O)N[C@H](CO)c2cccc(Cl)c2)c1 [Vx-11e]', 5.4);

---

test-description: Phase I study: pharmacokinetic analysis
Assay type: in vivo, human
test-parameters: human, plasma, oral, 40 mg, 40 mg BID; Day 15; read-out: AUC0-12
readout-type: AUC(0-t) (ng·h/mL)

INSERT INTO results (structure_smiles, quantitative_result) VALUES
  ('CC(C)Nc1cc(-c2c[nH]c(C(=O)N[C@H](CO)c3cccc(Cl)c3)c2)c(Cl)cn1', 999);

---

System: AN3Ca
test-description: Reverse Phase Protein Analysis (RPPA)
Assay type: cell-based
test-parameters: % change from DMSO (matched cell line)
readout-type: Avg (Bad S136) (%)

INSERT INTO measurements (compound, result_units, quantitative_result) VALUES
  ('O=C(Nc1ccc2[nH]nc(-c3ccncc3)c2c1)[C@@H]1CCN(CC(=O)N2CCN(c3ccc(-c4ncccn4)cc3)CC2)C1', '%', 5.26),
  ('CC(C)Nc1cc(-c2c[nH]c(C(=O)N[C@H](CO)c3cccc(Cl)c3)c2)c(Cl)cn1', '%', '−1.02'),
  ('Cc1cnc(Nc2ccc(F)cc2Cl)nc1-c1c[nH]c(C(=O)N[C@H](CO)c2cccc(Cl)c2)c1 [Vx-11e]', '%', '−3.81'),
  ('Cn1nccc1Nc1nccc(-c2ccn([C@H](CO)c3ccc(Cl)c(F)c3)c(=O)c2)n1', '%', 0.71);

---

test-description: Phase I study: pharmacokinetic analysis
Format: in vivo, human
test-parameters: human, plasma, oral, 300 mg, 300 mg BID; Day 1; read-out: Cmax ± SD
readout-type: Cmax (ng/mL)

INSERT INTO results (structure_smiles, readout_type, quantitative_result) VALUES
  ('CC(C)Nc1cc(-c2c[nH]c(C(=O)N[C@H](CO)c3cccc(Cl)c3)c2)c(Cl)cn1', 'Cmax', 765);

---

system-tested: JNK3 (Homo sapiens)
Sequence (P53779 whole entry, species assumed): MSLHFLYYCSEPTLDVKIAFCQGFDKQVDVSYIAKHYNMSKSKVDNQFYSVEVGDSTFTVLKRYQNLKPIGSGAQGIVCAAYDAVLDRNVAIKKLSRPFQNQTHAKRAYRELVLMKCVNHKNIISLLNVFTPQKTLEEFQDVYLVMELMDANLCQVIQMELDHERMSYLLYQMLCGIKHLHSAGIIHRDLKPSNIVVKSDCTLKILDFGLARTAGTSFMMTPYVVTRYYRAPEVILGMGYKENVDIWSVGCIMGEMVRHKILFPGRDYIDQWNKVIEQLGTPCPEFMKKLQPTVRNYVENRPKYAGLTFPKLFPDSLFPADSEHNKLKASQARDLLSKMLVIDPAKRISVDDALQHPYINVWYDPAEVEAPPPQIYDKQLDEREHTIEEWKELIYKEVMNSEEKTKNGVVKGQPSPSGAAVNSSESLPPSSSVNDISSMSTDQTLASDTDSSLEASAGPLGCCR
readout-type: Ki (µM)

INSERT INTO results (structure_smiles, readout_type, quantitative_result) VALUES
  ('CC(C)Nc1cc(-c2c[nH]c(C(=O)N[C@H](CO)c3cccc(Cl)c3)c2)c(Cl)cn1', 'Ki', 1.3);

---

Tested on: dose-escalated A375 cells
test-description: Proliferation assay (Alamar Blue, 96 h) in dose-escalated A375 cell lines
Assay type: cell-based, human
test-parameters: Homo sapiens, A-375, read-out: Relative IC50, Month 1; Tram-escalated line
pIC50: −log10 of the molar value.
readout-type: pIC50

INSERT INTO assay_data (structure_smiles, quantitative_result) VALUES
  ('CC(C)(C)c1nc(-c2cccc(NS(=O)(=O)c3c(F)cccc3F)c2F)c(-c2ccnc(N)n2)s1', 7.54);

---

Tested on: HCT116
test-description: Reverse Phase Protein Analysis (RPPA)
Format: cell-based, human
test-parameters: % change from DMSO (matched cell line)
readout-type: Avg (p70 S6 Kinase) (%)

INSERT INTO assay_data (molecule, quantitative_result) VALUES
  ('Cn1nccc1Nc1nccc(-c2ccn([C@H](CO)c3ccc(Cl)c(F)c3)c(=O)c2)n1 [GDC-0994]', '−9.9'),
  ('Cc1cnc(Nc2ccc(F)cc2Cl)nc1-c1c[nH]c(C(=O)N[C@H](CO)c2cccc(Cl)c2)c1 [Vx-11e]', '−4.45'),
  ('CC(C)Nc1cc(-c2c[nH]c(C(=O)N[C@H](CO)c3cccc(Cl)c3)c2)c(Cl)cn1 [BVD-523]', '−12.86'),
  ('O=C(Nc1ccc2[nH]nc(-c3ccncc3)c2c1)[C@@H]1CCN(CC(=O)N2CCN(c3ccc(-c4ncccn4)cc3)CC2)C1 [SCH772984]', '−14.12');

---

Tested on: Colo205
test-description: Reverse Phase Protein Analysis (RPPA)
Format: cell-based, human
test-parameters: % change from DMSO (matched cell line)
readout-type: Avg (p70 S6 Kinase) (%)

INSERT INTO assay_data (compound, quantitative_result) VALUES
  ('O=C(Nc1ccc2[nH]nc(-c3ccncc3)c2c1)[C@@H]1CCN(CC(=O)N2CCN(c3ccc(-c4ncccn4)cc3)CC2)C1', '−2.85'),
  ('Cn1nccc1Nc1nccc(-c2ccn([C@H](CO)c3ccc(Cl)c(F)c3)c(=O)c2)n1', 5.83),
  ('CC(C)Nc1cc(-c2c[nH]c(C(=O)N[C@H](CO)c3cccc(Cl)c3)c2)c(Cl)cn1', 0.14),
  ('Cc1cnc(Nc2ccc(F)cc2Cl)nc1-c1c[nH]c(C(=O)N[C@H](CO)c2cccc(Cl)c2)c1 [Vx-11e]', '−3.42');
